# Test system: PC-3 cells
# measurementNotes: Proliferation inhibition assay, PC-3
# Format: cell-based
# recordedConditions: Homo sapiens, PC-3; 1 μM; Table 2
Overview of reported inhibition at 1 µM across a group of compounds:
quantityName: inhibition at 1 µM (%)

> print(dat)
                                   compound  unitofmeasure  reported
1  CCn1cc(/C=C2\Oc3cc(OCc4c(Cl)cccc4Cl)ccc3C2=O)c2cc(OC)ccc21 [Aurone 4o]              %        67
2  Cn1cc(/C=C2\Oc3cc(OCc4c(F)cccc4Cl)ccc3C2=O)c2ccccc21 [Aurone 4h]              %         0
3  CCn1cc(/C=C2\Oc3cc(OCc4ccccc4F)ccc3C2=O)c2cc(OC)ccc21 [Aurone 4n]              %        28
4  CCn1cc(/C=C2\Oc3cc(OCc4c(Cl)cccc4Cl)ccc3C2=O)c2ccccc21 [Aurone 4q]              %        98
5  CCn1cc(/C=C2\Oc3cc(OCC#N)ccc3C2=O)c2cc(OC)ccc21 [Aurone 4a]              %        95
6  CCn1cc(/C=C2\Oc3cc(OCc4c(F)cccc4Cl)ccc3C2=O)c2ccccc21 [Aurone 4p]              %        91

The reported numbers originate from patent US20200354348A1.
